- PROTOCOL_SUMMARY: Prodrug activation in PBS at pH 7.4 assessed as drug release at 10 uM in presence of 1 mM GSH measured after 10 mins by HPLC analysis relative to control
- STATED_CONDITIONS: buffer, pH 7.4, 10 min
Tag: True if measured Activity is not below 90%, False if it is.

C=C(COC(=O)Nc1ccccc1)C(=O)c1ccc2cc(N(C)C)ccc2c1
False
C=C(CSc1ccccc1)C(=O)c1ccc2cc(N(C)C)ccc2c1
False
C=C(COC(=O)Cc1ccccc1)C(=O)c1ccc2cc(N(C)C)ccc2c1
True
C=C(C[N+](C)(C)Cc1ccccc1)C(=O)c1ccc2cc(N(C)C)ccc2c1.[Br-]
True

Request: // inclusive: Activity at least 90%? input: C=C(COC(=O)OCc1ccccc1)C(=O)c1ccc2cc(N(C)C)ccc2c1
Result: True

----------
- PROTOCOL_SUMMARY: Prodrug activation in PBS at pH 7.4 assessed as drug release at 10 uM in presence of 1 mM GSH measured after 60 mins by HPLC analysis relative to control
- STATED_CONDITIONS: buffer, pH 7.4, 1 h
ATTRIBUTE_MEASURED: Activity (%)
The figure you give is taken to be in %; do not add the unit.

C=C(COc1ccccc1)C(=O)c1ccc2cc(N(C)C)ccc2c1
93.5
C=C(COC(=O)OCc1ccccc1)C(=O)c1ccc2cc(N(C)C)ccc2c1
95.1
C=C(CN(C)Cc1ccccc1)C(=O)c1ccc2cc(N(C)C)ccc2c1
92.4
C=C(COC(=O)Nc1ccccc1)C(=O)c1ccc2cc(N(C)C)ccc2c1
98.2
C=C(COC(=O)Cc1ccccc1)C(=O)c1ccc2cc(N(C)C)ccc2c1
99.1
C=C(C[N+](C)(C)Cc1ccccc1)C(=O)c1ccc2cc(N(C)C)ccc2c1.[Br-]
98.9

API: the following record is the query input.
C=C(CSc1ccccc1)C(=O)c1ccc2cc(N(C)C)ccc2c1 yielded Activity of 95.4

----------
- PROTOCOL_SUMMARY: Prodrug activation in PBS at pH 7.4 assessed as drug release by measuring maximal fluorescence change at 10 uM in presence of 1 mM GSH measured after 50 mins relative to control
- STATED_CONDITIONS: buffer, pH 7.4, 50 min
Overview of reported Activity across a group of molecules:
Your answer is read as %, so omit the unit and give the number.

Just so you know, measured Activity for C=C(CN(C)Cc1ccccc1)C(=O)c1ccc2cc(N(C)C)ccc2c1 came out at 96.5

For C=C(COC(=O)Cc1ccccc1)C(=O)c1ccc2cc(N(C)C)ccc2c1 the molecule record lists Activity as 97.7

So, C=C(CSc1ccccc1)C(=O)c1ccc2cc(N(C)C)ccc2c1 ? Its Activity was 93.7

Looking up C=C(COc1ccccc1)C(=O)c1ccc2cc(N(C)C)ccc2c1 , I see its Activity listed as 97.3

Recorded Activity (molecule C=C(C[N+](C)(C)Cc1ccccc1)C(=O)c1ccc2cc(N(C)C)ccc2c1.[Br-] ): 98.4

The molecule listed as C=C(COC(=O)Nc1ccccc1)C(=O)c1ccc2cc(N(C)C)ccc2c1 has a reported Activity of 94.6

get_value(item= C=C(COC(=O)OCc1ccccc1)C(=O)c1ccc2cc(N(C)C)ccc2c1 , readout=Activity) returns 96.5

----------
- PROTOCOL_SUMMARY: Prodrug activation in PBS at pH 7.4 assessed as drug release at 10 uM in presence of 1 mM GSH measured after 30 mins by HPLC analysis relative to control
- STATED_CONDITIONS: buffer, pH 7.4, 0.5 h
ATTRIBUTE_MEASURED: Activity (%)
Provide the reading as a plain figure in %.

Lookup result for C=C(COC(=O)Nc1ccccc1)C(=O)c1ccc2cc(N(C)C)ccc2c1 ; measured Activity: 96.5

// Activity value for C=C(CSc1ccccc1)C(=O)c1ccc2cc(N(C)C)ccc2c1 : 90.6

Entry C=C(COc1ccccc1)C(=O)c1ccc2cc(N(C)C)ccc2c1 — recorded Activity = 93.5

Activity reported for this molecule C=C(COC(=O)Cc1ccccc1)C(=O)c1ccc2cc(N(C)C)ccc2c1 : 98.3

Activity recorded for this molecule, C=C(C[N+](C)(C)Cc1ccccc1)C(=O)c1ccc2cc(N(C)C)ccc2c1.[Br-] , is 98.2

// Activity lookup, molecule = C=C(COC(=O)OCc1ccccc1)C(=O)c1ccc2cc(N(C)C)ccc2c1 , result: 95.5

The molecule listed as C=C(CN(C)Cc1ccccc1)C(=O)c1ccc2cc(N(C)C)ccc2c1 has a reported Activity of 92.2

----------
- PROTOCOL_SUMMARY: Prodrug activation in PBS at pH 7.4 assessed as drug release by measuring maximal fluorescence change at 10 uM in presence of 1 mM GSH measured after 60 mins relative to control
- STATED_CONDITIONS: buffer, pH 7.4, 1 h
Each item that follows carries a reported Activity.
Kindly provide the numeric value in % only, without the unit symbol.

Worked cases, Activity given:
C=C(CSc1ccccc1)C(=O)c1ccc2cc(N(C)C)ccc2c1
96.5
C=C(C[N+](C)(C)Cc1ccccc1)C(=O)c1ccc2cc(N(C)C)ccc2c1.[Br-]
99
C=C(COC(=O)OCc1ccccc1)C(=O)c1ccc2cc(N(C)C)ccc2c1
97.4

// Activity value for C=C(CN(C)Cc1ccccc1)C(=O)c1ccc2cc(N(C)C)ccc2c1 : 97.1

// Activity value for C=C(COC(=O)Nc1ccccc1)C(=O)c1ccc2cc(N(C)C)ccc2c1 : 96.5

// field: Activity; key: C=C(COC(=O)Cc1ccccc1)C(=O)c1ccc2cc(N(C)C)ccc2c1 ; value = 98.1

// C=C(COc1ccccc1)C(=O)c1ccc2cc(N(C)C)ccc2c1 : Activity value = 99.1

----------
- PROTOCOL_SUMMARY: Prodrug activation in PBS at pH 7.4 assessed as drug release by measuring maximal fluorescence change at 10 uM in presence of 1 mM GSH measured immediately relative to control
- STATED_CONDITIONS: buffer, pH 7.4, 10 µM
criterion met if Activity is below 1%. criterion not met if not; exact matches included in criterion not met.

Request: Just wondering, is Activity of C=C(COC(=O)Cc1ccccc1)C(=O)c1ccc2cc(N(C)C)ccc2c1 below 1%?
Result: criterion not met

Request: Record C=C(CSc1ccccc1)C(=O)c1ccc2cc(N(C)C)ccc2c1 : is its Activity strictly below 1%?
Result: criterion not met

Request: Lab note: confirm whether the reported Activity for this compound is below 1%, equality not counting. compound: C=C(COC(=O)Nc1ccccc1)C(=O)c1ccc2cc(N(C)C)ccc2c1
Result: criterion not met

Request: # TODO verify Activity < 1% strictly for this compound: C=C(COc1ccccc1)C(=O)c1ccc2cc(N(C)C)ccc2c1
Result: criterion met

Request: Strictly below 1%: is that where Activity of C=C(COC(=O)OCc1ccccc1)C(=O)c1ccc2cc(N(C)C)ccc2c1 sits?
Result: criterion not met

Request: I'd appreciate it if you could check whether C=C(C[N+](C)(C)Cc1ccccc1)C(=O)c1ccc2cc(N(C)C)ccc2c1.[Br-] has Activity smaller than 1%.
Result: criterion met

Request: Lab note: Activity threshold 1%. Does this compound come in strictly under it? C=C(CN(C)Cc1ccccc1)C(=O)c1ccc2cc(N(C)C)ccc2c1
Result: criterion not met

----------
- PROTOCOL_SUMMARY: Prodrug activation in PBS at pH 7.4 assessed as drug release by measuring maximal fluorescence change at 10 uM in presence of 1 mM GSH measured after 10 mins relative to control
- STATED_CONDITIONS: buffer, pH 7.4, 10 min
Label rule, in plain words: Activity of 40% and up is true, under 40% is false.

The examples below pair each entry with its known result.
C=C(COC(=O)Cc1ccccc1)C(=O)c1ccc2cc(N(C)C)ccc2c1
true
C=C(C[N+](C)(C)Cc1ccccc1)C(=O)c1ccc2cc(N(C)C)ccc2c1.[Br-]
true
C=C(COc1ccccc1)C(=O)c1ccc2cc(N(C)C)ccc2c1
false
C=C(CSc1ccccc1)C(=O)c1ccc2cc(N(C)C)ccc2c1
false

Consider the additional molecule presented here.
Request: Reported Activity at or above 40%? C=C(CN(C)Cc1ccccc1)C(=O)c1ccc2cc(N(C)C)ccc2c1
Result: true

----------
- PROTOCOL_SUMMARY: Prodrug activation in PBS at pH 7.4 assessed as drug release at 10 uM in presence of 1 mM GSH measured after 20 mins by HPLC analysis relative to control
- STATED_CONDITIONS: buffer, pH 7.4, 20 min
Entries and their measured Activity follow.
Write the value in % as a bare number.

C=C(CN(C)Cc1ccccc1)C(=O)c1ccc2cc(N(C)C)ccc2c1
91.8
C=C(COC(=O)Nc1ccccc1)C(=O)c1ccc2cc(N(C)C)ccc2c1
91.1
C=C(COc1ccccc1)C(=O)c1ccc2cc(N(C)C)ccc2c1
93.5
C=C(COC(=O)OCc1ccccc1)C(=O)c1ccc2cc(N(C)C)ccc2c1
94.5
C=C(C[N+](C)(C)Cc1ccccc1)C(=O)c1ccc2cc(N(C)C)ccc2c1.[Br-]
97.8
C=C(COC(=O)Cc1ccccc1)C(=O)c1ccc2cc(N(C)C)ccc2c1
97.1

The value of Activity measured for the molecule C=C(CSc1ccccc1)C(=O)c1ccc2cc(N(C)C)ccc2c1 turned out to be 76.6
